Item-by-item account of Kd
# Assay System: T1, GFP-9S library array, motif 4 ND N98L;D124H (synthetic construct, N98L;D124H)
# T1 chain: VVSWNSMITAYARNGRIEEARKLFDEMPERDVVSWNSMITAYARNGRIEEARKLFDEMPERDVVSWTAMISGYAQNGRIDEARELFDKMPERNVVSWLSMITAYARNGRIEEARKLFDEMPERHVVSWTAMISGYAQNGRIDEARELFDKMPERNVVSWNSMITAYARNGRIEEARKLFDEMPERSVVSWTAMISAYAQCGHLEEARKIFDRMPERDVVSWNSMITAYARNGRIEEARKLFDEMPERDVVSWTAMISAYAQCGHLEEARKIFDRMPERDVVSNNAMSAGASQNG
# Method: high-throughput RNA pulldown from lysate on Ni-NTA beads; HRP: 50 mM Tris pH 8, 150 mM NaCl, 1 mM beta-mercaptoethanol, 50 ug/ml BSA, 3 ug/ml yeast RNA, 0.5% heparin; ITC and FP: Tris pH 8, 200 mM KCl, 5% glycerol; MST: 50 mM Tris pH 8, 200 mM NaCl, 1 mM DTT, BSA, heparin, 0.05% Tween 20
# Measurement Context: tags: N-terminal His-eGFP; label: 5' Cy5
Your answer is read as µM, so omit the unit and give the number.

Binder | Measured Metric | Numeric Result
AUUACACGUGA (ssRNA) [Cy5-rpoA] | Kd | 0.179

Turning now to a further binder:
Exercise: Kd lookup needed for AUUAGACGUGA (ssRNA) [Cy5-rpoA-G] , thanks.
Key: 0.196
